target: Procathepsin L (Homo sapiens, UniProt P07711)
Sequence (P07711 whole entry): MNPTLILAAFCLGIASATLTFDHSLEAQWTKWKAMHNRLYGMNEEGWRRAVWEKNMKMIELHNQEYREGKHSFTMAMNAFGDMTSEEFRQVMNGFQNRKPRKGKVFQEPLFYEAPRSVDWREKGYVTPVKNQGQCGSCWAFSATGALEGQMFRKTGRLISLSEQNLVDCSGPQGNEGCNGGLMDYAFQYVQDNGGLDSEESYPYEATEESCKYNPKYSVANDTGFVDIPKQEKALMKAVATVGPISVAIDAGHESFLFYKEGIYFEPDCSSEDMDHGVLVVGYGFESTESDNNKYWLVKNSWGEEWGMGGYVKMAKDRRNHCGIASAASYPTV
Known IC50 of a selection of compounds
Expressed in nM, but write only the number.

COc1cccc2[nH]c(C(=O)N[C@@H](CC(C)C)C(=O)N[C@H](C#N)C[C@@H]3CCCNC3=O)cc12 ... 640

Task item: Record COc1cccc2[nH]c(C(=O)N[C@@H](CC(C)C)C(=O)N[C@H](C=O)C[C@@H]3CCNC3=O)cc12 : what is its IC50 with Procathepsin L (Homo sapiens, UniProt P07711)?
Reply: 280

Task item: # returns recorded IC50 (system: Procathepsin L (Homo sapiens, UniProt P07711)) for COc1cccc2[nH]c(C(=O)N[C@@H](CC(C)C)C(=O)N[C@H](C#N)C[C@@H]3CCNC3=O)cc12
Reply: 1450

Task item: Enter reported IC50 observed with Procathepsin L (Homo sapiens, UniProt P07711) for COc1cc(Cl)cc2[nH]c(C(=O)N[C@@H](CC(C)C)C(=O)N[C@H](C#N)C[C@@H]3CCCNC3=O)cc12
Reply: 470

Task item: Enter reported IC50 observed with Procathepsin L (Homo sapiens, UniProt P07711) for CC(C)C[C@H](NC(=O)OCc1ccccc1)C(=O)N[C@@H](C[C@@H]1CCNC1=O)C(O)S(=O)(=O)O (stereo not given in full)
Reply: 0.25

###

experiment: Inhibition of Enterovirus 71 3Cpro
property.measured: IC50 (µM)
Give your result in µM as a bare value.

Task item: Entry Cc1cc(C(=O)N[C@@H](Cc2ccc(F)cc2)C(=O)N[C@H](C#N)C[C@@H]2CCCNC2=O)no1 : reported IC50 = ?
Reply: 14.7

###

target: UniProt:P25774
Sequence (P25774 whole entry): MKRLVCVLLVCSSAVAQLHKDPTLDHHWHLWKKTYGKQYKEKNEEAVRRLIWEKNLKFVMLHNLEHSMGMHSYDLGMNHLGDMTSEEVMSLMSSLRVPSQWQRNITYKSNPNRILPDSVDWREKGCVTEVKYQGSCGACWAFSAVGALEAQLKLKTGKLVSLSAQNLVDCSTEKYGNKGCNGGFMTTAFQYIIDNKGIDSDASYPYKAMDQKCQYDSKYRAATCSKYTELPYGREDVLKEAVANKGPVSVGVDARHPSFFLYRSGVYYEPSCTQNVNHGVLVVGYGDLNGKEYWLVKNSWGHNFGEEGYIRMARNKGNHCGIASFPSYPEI
hey, just use Satisfied if measured IC50 is less than 0.4 µM, otherwise Not satisfied

Task item: Here's an entry: CC(C)C[C@H](NC(=O)OCc1ccccc1)C(=O)N[C@@H](C[C@@H]1CCNC1=O)C(O)S(=O)(=O)O (stereo not given in full) . Is its IC50 below 0.4 µM?
Reply: Satisfied

Task item: Does this compound meet the criterion IC50 < 0.4 µM? COc1cccc2[nH]c(C(=O)N[C@@H](CC(C)C)C(=O)N[C@H](C#N)C[C@@H]3CCNC3=O)cc12
Reply: Not satisfied

Task item: Regarding COc1cccc2[nH]c(C(=O)N[C@@H](CC(C)C)C(=O)N[C@H](C=O)C[C@@H]3CCNC3=O)cc12 , kindly confirm whether its IC50 is beneath 0.4 µM.
Reply: Satisfied

Task item: Does this compound meet the criterion IC50 < 0.4 µM? COc1cccc2[nH]c(C(=O)N[C@@H](CC(C)C)C(=O)N[C@H](C#N)C[C@@H]3CCCNC3=O)cc12
Reply: Not satisfied
